Origin of measurements: patent US10294234B2

The following molecules are listed with their measured Rat. Pred. Cl. values.
condition.summary: rat liver microsomes 0.5 mg/mL, 1 uM compound, NADPH
Enter your answer as a number in L/H/kg; do not include the unit.

For orientation, consider the following solved cases.
COC(=O)N[C@H](C(=O)N[C@@H](Cc1ccc(C#Cc2ccc(N3CC4CCC(C3)N4C3COC3)nc2)cc1)[C@@H](O)CN(Cc1c(F)cc(-c2ccn(C(F)F)n2)cc1F)NC(=O)[C@@H](NC(=O)OC)C(C)(C)C(F)(F)F)C(C)(C)C(F)(F)F [Example 58]	0.24
COC(=O)N[C@H](C(=O)N[C@@H](Cc1ccc(C#Cc2cnc(N3C[C@H]4C[C@@H]3CN4C3COC3)nc2)cc1)[C@@H](O)CN(Cc1c(F)cc(-c2ccn(C(F)F)n2)cc1F)NC(=O)[C@@H](NC(=O)OC)C(C)(C)C(F)(F)F)C(C)(C)C(F)(F)F [Example 32]	0.59
COC(=O)N[C@H](C(=O)N[C@@H](Cc1ccc(-c2cnn(C(F)F)c2)cc1)[C@@H](O)CN(Cc1c(F)cc(-c2ccn(C(F)F)n2)cc1F)NC(=O)[C@@H](NC(=O)OC)C(C)(C)C(F)(F)F)C(C)(C)C(F)(F)F [Example 209]	1.21
COC(=O)N[C@H](C(=O)N[C@@H](Cc1ccc(C#Cc2ccc(N3CC4CCC(C3)O4)nc2)cc1)[C@@H](O)CN(Cc1c(F)cc(-c2cnn(C(F)F)c2)cc1F)NC(=O)[C@@H](NC(=O)OC)C(C)(C)C(F)(F)F)C(C)(C)C(F)(F)F [Example 68]	0.61

Query: # query: Rat. Pred. Cl. of entry COC(=O)N[C@H](C(=O)N[C@@H](Cc1ccc(C#Cc2ccc(N3C[C@H]4C[C@@H]3CN4C3COC3)nc2)cc1)[C@@H](O)CN(Cc1c(F)cc(-c2ccn(C(F)F)n2)cc1F)NC(=O)[C@@H](NC(=O)OC)C(C)(C)C(F)(F)F)C(C)(C)C(F)(F)F [Example 173]
Reply: 1.2

Query: # query: Rat. Pred. Cl. of entry COC(=O)N[C@H](C(=O)N[C@@H](Cc1ccc(C#Cc2ccc(N3C[C@H]4C[C@@H]3CN4C3COC3)nc2)cc1)[C@@H](O)CN(Cc1c(F)cc(-c2ccn(C3CC3)n2)cc1F)NC(=O)[C@@H](NC(=O)OC)C(C)(C)C(F)(F)F)C(C)(C)C(F)(F)F [Example 45]
Reply: 0.92
